experiment: Cell cytotoxicity in Vero cells; format: cell-based; details: African green monkey, Vero cells; Table 5

[
  {
    "COMPOUND": "Nc1ccn([C@@H]2CS[C@H](CO)O2)c(=O)n1 [Compound 3-TC, lamivudine, reference compound]",
    "CC50": "> 100 µg/mL"
  }
]
